# ASSAY_SYSTEM: Vasopressin V1b receptor (Homo sapiens)
# Sequence (P47901 whole entry): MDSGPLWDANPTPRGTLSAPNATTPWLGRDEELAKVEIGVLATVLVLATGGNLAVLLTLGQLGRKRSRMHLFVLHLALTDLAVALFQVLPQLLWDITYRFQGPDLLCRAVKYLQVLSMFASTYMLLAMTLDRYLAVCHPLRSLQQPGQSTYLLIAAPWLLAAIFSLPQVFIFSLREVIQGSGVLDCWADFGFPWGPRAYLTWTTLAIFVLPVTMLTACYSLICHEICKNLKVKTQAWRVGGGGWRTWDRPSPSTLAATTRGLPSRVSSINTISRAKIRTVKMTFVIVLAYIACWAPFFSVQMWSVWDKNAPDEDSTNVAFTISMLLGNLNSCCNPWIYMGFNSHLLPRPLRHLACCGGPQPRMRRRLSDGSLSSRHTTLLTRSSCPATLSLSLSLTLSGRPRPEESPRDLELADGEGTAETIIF
# ASSAY_EXPLANATION: Agonist activity at human V1B receptor expressed in HEK293 cells assessed as intracellular calcium level measured at 3 secs interval for 5 mins by fura-2/AM dye based micro spectrofluorometric method
pEC50: −log10 of the molar value.
READOUT_TYPE: pEC50

Completed entries (count: 2):
The observed pEC50 for `CCCCCCCCCCCCCCCNC(=O)Oc1ccc(C[C@@H]2NC(=O)[C@@H](NC(=O)CCCCCCCCCCCCCCC)CSSC[C@@H](C(=O)N3CCC[C@H]3C(=O)N[C@@H](CC(C)C)C(=O)NCC(N)=O)NC(=O)[C@H](CC(N)=O)NC(=O)[C@H](CCC(N)=O)NC(=O)[C@H]([C@@H](C)CC)NC2=O)cc1` when tested with Vasopressin V1b receptor (Homo sapiens) stands at < 4.00

The compound `CCCCCCCCCCCCCCCC(=O)N[C@H]1CSSC[C@@H](C(=O)N2CCC[C@H]2C(=O)N[C@@H](CC(C)C)C(=O)NCC(N)=O)NC(=O)[C@H](CC(N)=O)NC(=O)[C@H](CCC(N)=O)NC(=O)[C@H]([C@@H](C)CC)NC(=O)[C@H](Cc2ccc(OC(=O)OCCCCCCCCCCCCCC)cc2)NC1=O` on Vasopressin V1b receptor (Homo sapiens): pEC50 was < 4.00

Go through the list and state pEC50 for each entry.
1. CCCCCCCCCCCCCCCCNC(=O)Oc1ccc(C[C@@H]2NC(=O)[C@@H](NC(=O)CCCCCCCCCCCCCCC)CSSC[C@@H](C(=O)N3CCC[C@H]3C(=O)N[C@@H](CC(C)C)C(=O)NCC(N)=O)NC(=O)[C@H](CC(N)=O)NC(=O)[C@H](CCC(N)=O)NC(=O)[C@H]([C@@H](C)CC)NC2=O)cc1
2. CCCCCCCCCCCCCCCOC(=O)Oc1ccc(C[C@@H]2NC(=O)[C@@H](NC(=O)CCCCCCCCCCCCCCC)CSSC[C@@H](C(=O)N3CCC[C@H]3C(=O)N[C@@H](CC(C)C)C(=O)NCC(N)=O)NC(=O)[C@H](CC(N)=O)NC(=O)[C@H](CCC(N)=O)NC(=O)[C@H]([C@@H](C)CC)NC2=O)cc1

Outgoing:
1. < 4.00
2. < 4.00
